Measurement notes: refractive index (Na D-line) (dimensionless)
Experimental parameters: 308.15 K; 101.33 kPa; Liquid; Standard Abbe refractometry
Readout type: refractive index

[
  {
    "Compound": "CCCCC(C)O (stereo not given)",
    "refractive index": 1.4077
  },
  {
    "Compound": "CCC(C)O (stereo not given)",
    "refractive index": 1.3905
  },
  {
    "Compound": "CC#N",
    "refractive index": 1.3371
  },
  {
    "Compound": "CC(C)O",
    "refractive index": 1.3703
  },
  {
    "Compound": "CCCCCC(C)O (stereo not given)",
    "refractive index": 1.4143
  }
]

Measured values drawn from the NIST ThermoML archive (doi:10.1016/j.tca.2009.06.015) for this set.
